solubility for assorted compounds
assay details: solubility in water of hydroxysulfides (1 g per ... mL H2O)
Assay type: physicochemical
condition summary: water; mL H2O per 1 g hydroxysulfide
measurement kind: solubility (mg/mL)

[[record]]
compound = "CC(C)(C)SCCOCCO [t-BuSCH2 CH2 OCH2 CH2 OH, 2-2-(tert-butylthio)ethoxy!ethanol]"
measurement_kind = "solubility"
val = 66.7

[[record]]
compound = "CC(C)(C)SCCO [t-BuSCH2 CH2 OH, 2-(tert-butylthio)ethanol]"
measurement_kind = "solubility"
val = 20


----------
assay details: active hydride analysis of borane adducts ([BH3], by hydrolysis and hydrogen evolved)
Format: physicochemical
condition summary: estimated by hydrolysis in water:glycerol:THF 1:1:1 and measuring hydrogen evolved
Each item that follows carries a reported [BH3].
measurement kind: [BH3] (M)

[[record]]
molecule = "[BH3-][S+](CC)CCOCCOB(OCCOCC[S+]([BH3-])CC)OCCOCC[S+]([BH3-])CC (centres unmarked)"
val = 5.7

[[record]]
molecule = "[BH3-][S+](CCOB(OCC[S+]([BH3-])C(C)(C)C)OCC[S+]([BH3-])C(C)(C)C)C(C)(C)C (centres unmarked)"
val = 6.4

[[record]]
molecule = "[BH3-][S+](CCOCCOCCOB(OCCOCCOCC[S+]([BH3-])C(C)(C)C)OCCOCCOCC[S+]([BH3-])C(C)(C)C)C(C)(C)C (centres unmarked)"
val = 4.2

[[record]]
molecule = "[BH3-][S+](CCOCCOCCOB(OCCOCCOCC[S+]([BH3-])CCC(C)C)OCCOCCOCC[S+]([BH3-])CCC(C)C)CCC(C)C (centres unmarked)"
val = 4.0

[[record]]
molecule = "[BH3-][S+](CC)CCOCCOCCOB(OCCOCCOCC[S+]([BH3-])CC)OCCOCCOCC[S+]([BH3-])CC (centres unmarked)"
val = 5.2

